The origin of these recorded values is patent US20210301005A1.

- SYSTEM UNDER TEST: T1, human TGFβ2, mature receptor-binding domain (human, UniProt P09858 303-414 (pig entry), The mature TGFβ2 is a disulfide-linked homodimer of this 112-residue chain. The 4A11 epitope spans both monomers (p-1207).)
- T1 construct: Peprotech; also called TGFb2
- T1 sequence: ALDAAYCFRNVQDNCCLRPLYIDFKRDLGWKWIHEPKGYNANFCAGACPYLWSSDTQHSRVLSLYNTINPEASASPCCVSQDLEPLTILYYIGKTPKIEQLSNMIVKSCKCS
- TEST PROTOCOL: BIAcore T200
PROPERTY LABEL: pKd
Lab note: report pKd as minus log10 of the concentration in molar units, number only.

[[record]]
binder = "h4A11.v7.11 (antibody, human IgG1, kappa, N297G, V domains shown) VH: EQQLQESGPGLVKPSETLSLTCTVTGFSLSSYTVNWVRQPAGKGLEWIGYISYGGSAYYASWANGRFTISVDSSKNQVSLKLSSVTAADTAVYFCARHMQVGGAPTGSMAAFDPWGPGTLVTVSS VL: EAVLTQSPGTLSLSPGERATLSCQSSQSVYNNNYLSWFQQKPGQPPRLLIYGASTLTSGVPDRFSGSGSGTDFTLTISRLEPEDFAVYYCAGGYSGSSDKYAFGGGTKVEIKR"
measured_value = 10.40

[[record]]
binder = "h4A11.v7.12 (antibody, human IgG1, kappa, N297G, V domains shown) VH: EQQLQESGPGLVKPSETLSLTCTVTGFSLSSYTVNWVRQPAGKGLEWIGYISYGGSAYYASWANGRFTISKDTSKNQVSLKLSSVTAADTAVYFCARHMQVGGAPTGSMAAFDPWGPGTLVTVSS VL: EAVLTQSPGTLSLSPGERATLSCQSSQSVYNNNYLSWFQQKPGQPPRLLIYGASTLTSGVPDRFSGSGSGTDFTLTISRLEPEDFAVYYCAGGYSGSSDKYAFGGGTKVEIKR"
measured_value = 11.22


Challenge: What value of measured pKd is listed for h4A11.v7.5 (antibody, V domains shown) VH: EQQLQESGPGLVKPSETLSLTCTVTGFSLSSYTVNWVRQPAGKGLEWIGYISYGGSAYYASWANGRFTISKDSSKNQVSLKLSSVTAADTAVYFCARHMQVGGAPTGSMAAFDPWGPGTLVTVSS VL: EAVLTQSPGTLSLSPGERATLSCQSSQSVYNNNYLSWYQQKPGQPPRLLIYGASTLTSGVPDRFSGSGSGTDFTLTISRLEPEDFAVYYCAGGYSGSSDKYAFGGGTKVEIK ?
Response given: 11.04
